# key: entry, value: pIC50
EXPERIMENTAL TARGET: CDK4/CyclinD1 (Homo sapiens, UniProt P11802)
Sequence (P11802 whole entry, species assumed): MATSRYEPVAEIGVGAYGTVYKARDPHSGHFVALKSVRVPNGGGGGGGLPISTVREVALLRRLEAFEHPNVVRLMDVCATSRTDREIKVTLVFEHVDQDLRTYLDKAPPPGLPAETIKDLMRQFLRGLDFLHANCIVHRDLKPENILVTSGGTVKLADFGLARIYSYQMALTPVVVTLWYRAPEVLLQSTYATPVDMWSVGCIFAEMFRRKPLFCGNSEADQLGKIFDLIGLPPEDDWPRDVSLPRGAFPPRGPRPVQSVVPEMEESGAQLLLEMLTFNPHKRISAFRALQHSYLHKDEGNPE
Sequence (P24385 whole entry partner, species assumed): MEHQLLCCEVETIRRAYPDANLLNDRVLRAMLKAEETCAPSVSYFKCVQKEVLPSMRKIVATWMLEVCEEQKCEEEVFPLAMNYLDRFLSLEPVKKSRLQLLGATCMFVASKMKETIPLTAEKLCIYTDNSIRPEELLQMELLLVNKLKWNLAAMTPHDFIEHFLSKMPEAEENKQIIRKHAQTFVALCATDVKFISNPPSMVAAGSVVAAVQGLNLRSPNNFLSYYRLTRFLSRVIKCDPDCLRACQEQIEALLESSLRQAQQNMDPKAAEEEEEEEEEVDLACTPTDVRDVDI
PROTOCOL: CDK4/CyclinD1 Flashplate assay, 96-well format, biotinylated-Rb peptide substrate
Type: biochemical
pIC50: −log10 of the molar value.
MEASURED METRIC: pIC50

1. O=C(NCCCCO)Nc1nc2cc(OS(=O)(=O)c3ccc(NCC4CCCO4)cc3)ccc2[nH]1 (stereo not shown) [Example 59-d] :: 6.30
2. O=C(NCCCN1CCCC1)Nc1nc2cc(OS(=O)(=O)c3ccc(NC4CCCC4)cc3)ccc2[nH]1 [Example 58-ag] :: 6.41
3. COCC(C)Nc1ccc(S(=O)(=O)Oc2ccc3[nH]c(NC(=O)C4CC4)nc3c2)cc1 (stereo not shown) [Example 60-f] :: 6.00
4. O=C(Nc1nc2cc(OS(=O)(=O)c3ccc(NCCCCO)cc3)ccc2[nH]1)C1CC1 [Example 60-e] :: 6.05
5. COC(=O)Nc1nc2ccc(OS(=O)(=O)c3ccc(OCc4ccccc4)cc3)cc2[nH]1 [Example 63] :: 5.82
6. COCCOc1ccc(S(=O)(=O)Oc2ccc3nc(NC(=O)OC)[nH]c3c2)cc1 [Example 64-c] :: 5.36
7. CCN(CC)CCNC(=O)Nc1nc2cc(OS(=O)(=O)c3ccc(NC4CCCC4)cc3)ccc2[nH]1 [Example 58-am] :: 6.62
8. O=C(Nc1nc2cc(OS(=O)(=O)c3ccc(NC4CCC4)cc3)ccc2[nH]1)C1CC1 [Example 60-ah] :: 6.26
9. CCNC(=O)Nc1nc2cc(OS(=O)(=O)c3ccc(NCC4CCCO4)cc3)ccc2[nH]1 (stereo not shown) [Example 59-j] :: 6.05
10. COC(=O)Nc1nc2cc(OS(=O)(=O)c3ccccc3C#N)ccc2[nH]1 [Example 62-n] :: 6.00
